# Protocol: GSH incorporation experiments
# Format: in vitro ADME, human
# Experimental Conditions: 10 μM compound, GSH 5 mM, 37 °C, 30 min, presence of HLM
Readout Type: % GSH + HLM (%)

Consider the reported % GSH + HLM for these compounds:
- Smiles String: "Clc1nccc(-n2ccc3ncccc32)n1"
  Readout Type: "% GSH + HLM"
  Reading Unit: "%"
  Experimental Result: 53.5
- Smiles String: "Clc1ncc(Cl)c(-n2ccc3ncccc32)n1"
  Readout Type: "% GSH + HLM"
  Reading Unit: "%"
  Experimental Result: 96.0

P = Clc1ncc(Cl)c(-n2ccc3ncncc32)n1
Q = N#Cc1ccc(Cl)nc1-n1ccc2ncncc21
R = Clc1ncc(Cl)c(-c2c[nH]c3ncncc23)n1
Write the entries in order, lowest recorded % GSH + HLM first. Labels, requested order.
R, Q, P
(R: 16.1%, Q: 49.9%, P: 99.9%)

====

# Protocol: GSH incorporation experiments
# Format: in vitro ADME, human
# Experimental Conditions: 10 μM compound, GSH 5 mM, 37 °C, 30 min, absence of HLM
Readout Type: %GSH − HLM (%)

- Smiles String: "N#Cc1ccc(Cl)nc1-n1ccc2ncncc21"
  Reading Unit: "%"
  %GSH − HLM: 2.8

P = Clc1ncc(Cl)c(-n2ccc3ncncc32)n1
Q = Clc1ncc(Cl)c(-c2c[nH]c3ncncc23)n1
R = Clc1nccc(-n2ccc3ncccc32)n1
Write the entries in order, lowest recorded %GSH − HLM first. Labels, requested order.
Q, R, P
(Q: 0%, R: 0.1%, P: 2.5%)

Every entry's value here was drawn from paper PMC9290008.
